Recorded TGI for the following compounds
# System: M14 melanoma
# Experiment: NCI tumour cell line growth inhibition, 48 h

QUERY: Hi! What's the reported TGI for `O=C(/C=C/c1ccccc1O)c1cccs1` on M14 melanoma?
RESULT: > 100 µM

QUERY: Hi! What's the reported TGI for COc1cc2c3c(c1OC)-c1ccccc1C(C(O)c1ccccc1)C3N(C)CC2 (configuration not stated) on M14 melanoma?
RESULT: 35.6 µM

QUERY: Hi! What's the reported TGI for `C=C[C@]1(C)C[C@@H](OC(=O)CO)[C@@]2(C)[C@H](C)CC[C@]3(CCC(=O)[C@H]32)[C@@H](C)[C@@H]1O` on M14 melanoma?
RESULT: > 100 µM

QUERY: Hi! What's the reported TGI for CC(C)=C[C@@H]1C[C@H](C)[C@H]2CC[C@H](C)c3c(O)c(OC4OCC(O)C(O)C4O)c(C)c1c32 (some centres not stated) on M14 melanoma?
RESULT: 39.3 µM

QUERY: Hi! What's the reported TGI for C[C@@]1(O)C2C3CC4C5C3C1[C@](O)(C42)[C@H]5Br (some centres not stated) on M14 melanoma?
RESULT: > 100 µM

QUERY: Hi! What's the reported TGI for `N#Cc1c(N)c2c(c(-c3ccccc3)c1-c1ccccc1)C(=O)N(NC(=S)Nc1ccccc1)C2=O` on M14 melanoma?
RESULT: > 100 µM

QUERY: Hi! What's the reported TGI for `O=C(O)C1(Cc2ccccc2)Cc2ccccc2C1` on M14 melanoma?
RESULT: > 100 µM

###

# Tested on: ACHN renal
# Experiment: NCI tumour cell line growth inhibition, 48 h; in the data active means GI50 below about 0.43 µM; inactive means the rest
// classify into true (1) (active), false (0) (inactive)

Please review the following examples before continuing.
QUERY: // outcome(item) with item = `CCOC(=O)C#Cc1c(C(=O)OCC)nnn1Cc1ccc(C(F)(F)F)cc1`
RESULT: false (0)

QUERY: // outcome(item) with item = `COC(=O)CCC1=C(C)C(C)=N/C1=C\c1[nH]c(-c2ccc[nH]2)cc1OC`
RESULT: true (1)

QUERY: // outcome(item) with item = CC(=O)O[C@H]1[C@@H]2OC(=O)C3(CC3)C2C[C@H]2O[C@]2(C)CC/C=C(\C)CCC[C@@H]1C (stereo partly drawn)
RESULT: false (0)

QUERY: // outcome(item) with item = C=C1C(C(O)C[C@H](C)C2O[C@@]3(CCCCO3)CCC2C)O[C@@H]2CCC3(CCC(/C=C/[C@@H](C)C4CC(C)=CC5(O4)O[C@H](C[C@](C)(O)C(=O)O)CCC5O)O3)OC2[C@@H]1O (stereo partly drawn)
RESULT: true (1)

QUERY: // outcome(item) with item = `O=C(c1cccs1)c1c(C(F)(F)F)n([O-])c2ccc(Cl)cc2[n+]1=O`
RESULT: true (1)

QUERY: // outcome(item) with item = `Cc1ccc(/C(=C/C=C(/C#N)C(N)=O)Sc2ncnn2C)cc1`
RESULT: false (0)

From here, focus on the item given below.
QUERY: // outcome(item) with item = CN1C(=O)C23CC4(C56CC78SSC(CO)(C(=O)N7C5Nc5ccccc56)N(C)C8=O)c5ccccc5NC4N2C(=O)C1(CO)SS3 (stereo not drawn)
RESULT: true (1)
